# assay text: Displacement of 3[H]Flunitrazepam from GABA-A central benzodiazepine receptor of bovine brain membranes
# Format: cell membranes, Bos taurus
pIC50: −log10 of the molar value.
// Not satisfied strictly below 7 in pIC50; Satisfied otherwise

{"columns": ["compound", "assigned class"],
 "data": [
  ["Cc1cccc(-n2nc(-c3ccccc3)c3c(O)nc4ccccc4c32)c1", "Not satisfied"],
  ["CNC1=Nc2ccc(Cl)cc2C(c2ccccc2)=[N+]([O-])C1 [CHLORDIAZEPOXIDE]", "Satisfied"],
  ["Oc1nc2ccccc2c2c1c(-c1ccccc1)nn2-c1cccc(Br)c1", "Not satisfied"],
  ["O=C1C2C=Nc3ccccc3C2=NN1c1ccccc1 (configuration not stated) [CGS-8216]", "Satisfied"],
  ["Cn1c(=O)c2c(-c3ccccc3)nn(-c3ccccc3)c2c2ccccc21", "Not satisfied"],
  ["Cn1c(=O)c2c(-c3ccccc3)nn(-c3ccc(Cl)cc3)c2c2ccccc21", "Not satisfied"],
  ["Oc1nc2ccccc2c2c1c(-c1ccccc1)nn2-c1ccccc1", "Not satisfied"],
  ["CN1C(=O)CN=C(c2ccccc2)c2cc(Cl)ccc21 [DIAZEPAM]", "Satisfied"],
  ["Cc1ccc(-n2nc(-c3ccccc3)c3c(O)nc4ccccc4c32)cc1", "Not satisfied"],
  ["O=C1C2C=Nc3ccccc3C2=NN1c1ccc(Cl)cc1 (configuration not stated) [CGS-9896]", "Satisfied"],
  ["Oc1nc2ccccc2c2c1c(-c1ccccc1)nn2-c1cccc(Cl)c1", "Not satisfied"],
  ["COc1ccc(-n2nc3c4ccccc4[nH]cc-3c2=O)cc1", "Satisfied"],
  ["Cc1ccc(-n2nc(-c3ccccc3)c3c(=O)n(C)c4ccccc4c32)cc1", "Not satisfied"],
  ["Oc1nc2ccccc2c2c1c(-c1ccccc1)nn2-c1ccc(Cl)cc1", "Not satisfied"]
]}
